targetOrSystem: Adenosine receptor A2a (Homo sapiens)
method: Displacement of [3H]ZM-241,385 from human N-terminal FLAG-tagged adenosine A2A receptor expressed in HEK293 cell membrane assessed as decrease in radioligand residence time at 100 uM by microbeta scintillation counting method relative to control
Type: cell membranes
observable: fold change (FC)
Enter a number only.

1) COc1cccc(CCNc2nc(N)c(C(=O)N=C(N)N)nc2Cl)c1.Cl = 1.5
2) COc1ccc(CCNc2nc(N)c(C(=O)N=C(N)N)nc2Cl)cc1.Cl = 1.5
3) CCOc1ccc(CCNc2nc(N)c(C(=O)N=C(N)N)nc2Cl)cc1.O=C(O)C(F)(F)F = 1.5

The compound N=C(N)NC(=O)c1nc(Cl)c(N2CCCCCC2)nc1N [N,N-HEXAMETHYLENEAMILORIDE] showed fold change (FC) equal to 2.2

###

System: Adenosine A2 receptor (Homo sapiens), P29275+P29274 [W246A]
method: Displacement of [3H]ZM-241,385 from human N-terminal FLAG-tagged adenosine A2A receptor W246A 6.48 mutant expressed in HEK293 cell membrane assessed as radioligand binding at 10 uM by microbeta scintillation counting method relative to control
Format: cell membranes
Rule: Activity below 30% gives True, anything at or above gives False.

1. N=C(N)NC(=O)c1nc(Cl)c(NCCSCc2ccccc2)nc1N = False
2. COc1ccc(CCNc2nc(N)c(C(=O)N=C(N)N)nc2Cl)cc1.Cl = True
3. NC(N)=NC(=O)c1nc(Cl)c(NCCCc2ccccc2)nc1N = True
4. CCOC(=O)CCNc1nc(N)c(C(=O)NC(=N)N)nc1Cl = False
5. COc1cccc(CCNc2nc(N)c(C(=O)N=C(N)N)nc2Cl)c1.Cl = True

Problem: Criterion: Activity strictly below 30%. Is it met by N=C(N)NC(=O)c1nc(Cl)c(NCCS(=O)(=O)Cc2ccccc2)nc1N ?
Solution: True

Problem: Criterion: Activity strictly below 30%. Is it met by N=C(N)NC(=O)c1nc(Cl)c(NCCC(=O)O)nc1N ?
Solution: False

Problem: Criterion: Activity strictly below 30%. Is it met by NC(N)=NC(=O)c1nc(Cl)c(NCCc2ccc(O)cc2)nc1N ?
Solution: True

Problem: Criterion: Activity strictly below 30%. Is it met by N=C(N)NC(=O)c1nc(Cl)c(N2CCCCCC2)nc1N [N,N-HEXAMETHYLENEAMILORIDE] ?
Solution: True

Problem: Criterion: Activity strictly below 30%. Is it met by N#CCCNc1nc(N)c(C(=O)NC(=N)N)nc1Cl ?
Solution: True

Problem: Criterion: Activity strictly below 30%. Is it met by CCCCOc1ccc(CCNc2nc(N)c(C(=O)N=C(N)N)nc2Cl)cc1 ?
Solution: True

Problem: Criterion: Activity strictly below 30%. Is it met by Cc1ccc(CCNc2nc(N)c(C(=O)N=C(N)N)nc2Cl)cc1 ?
Solution: True

Problem: Criterion: Activity strictly below 30%. Is it met by C=CCOc1ccc(CCNc2nc(N)c(C(=O)N=C(N)N)nc2Cl)cc1 ?
Solution: True

Problem: Criterion: Activity strictly below 30%. Is it met by Cl.NC(N)=NC(=O)c1nc(Cl)c(NCCc2ccc3c(c2)OCO3)nc1N ?
Solution: True

Problem: Criterion: Activity strictly below 30%. Is it met by NC(N)=NC(=O)c1nc(Cl)c(NCCc2ccc(OC(F)(F)F)cc2)nc1N ?
Solution: True

Problem: Criterion: Activity strictly below 30%. Is it met by NC(N)=NC(=O)c1nc(Cl)c(NCCc2ccc(Cl)c(Cl)c2)nc1N ?
Solution: True

Problem: Criterion: Activity strictly below 30%. Is it met by N=C(N)NC(=O)c1nc(Cl)c(NCC(=O)O)nc1N ?
Solution: False

Problem: Criterion: Activity strictly below 30%. Is it met by N=C(N)NC(=O)c1nc(Cl)c(N)nc1N ?
Solution: True

Problem: Criterion: Activity strictly below 30%. Is it met by NC(N)=NC(=O)c1nc(Cl)c(NCCc2ccc([N+](=O)[O-])cc2)nc1N ?
Solution: True

Problem: Criterion: Activity strictly below 30%. Is it met by N=C(N)NC(=O)c1nc(Cl)c(NCCc2nnn[nH]2)nc1N ?
Solution: False

Problem: Criterion: Activity strictly below 30%. Is it met by COc1ccc(CCNc2nc(N)c(C(=O)N=C(N)N)nc2Cl)cc1OC ?
Solution: True

Problem: Criterion: Activity strictly below 30%. Is it met by N=C(N)NC(=O)c1nc(Cl)c(NCc2ccccc2)nc1N ?
Solution: True

Problem: Criterion: Activity strictly below 30%. Is it met by N=C(N)NC(=O)c1nc(Cl)c(NCc2ccncc2)nc1N ?
Solution: False

Problem: Criterion: Activity strictly below 30%. Is it met by CCOc1ccc(CCNc2nc(N)c(C(=O)N=C(N)N)nc2Cl)cc1.O=C(O)C(F)(F)F ?
Solution: True

Problem: Criterion: Activity strictly below 30%. Is it met by N=C(N)NC(=O)c1nc(Cl)c(NCCc2ccccc2)nc1N ?
Solution: True

Problem: Criterion: Activity strictly below 30%. Is it met by N=C(N)NC(=O)c1nc(Cl)c(NCCNCc2ccccc2)nc1N ?
Solution: False

Problem: Criterion: Activity strictly below 30%. Is it met by NC(N)=NC(=O)c1nc(Cl)c(NCCc2ccc(Br)cc2)nc1N ?
Solution: True

Problem: Criterion: Activity strictly below 30%. Is it met by NC(N)=NC(=O)c1nc(Cl)c(NCCc2ccc(OCc3ccccc3)cc2)nc1N ?
Solution: True

Problem: Criterion: Activity strictly below 30%. Is it met by N=C(N)NC(=O)c1nc(Cl)c(NCc2ccc(F)cc2)nc1N ?
Solution: False

Problem: Criterion: Activity strictly below 30%. Is it met by CCN(CC)CCNc1nc(N)c(C(=O)NC(=N)N)nc1Cl ?
Solution: False

###

Tested on: Adenosine A2 receptor (Homo sapiens), P29275+P29274 [W246A]
method: Displacement of [3H]ZM-241,385 from human N-terminal FLAG-tagged adenosine A2A receptor W246A 6.48 mutant expressed in HEK293 cell membrane assessed as decrease in radioligand residence time at 10 uM by microbeta scintillation counting method relative to control
Format: cell membranes
Rule: fold change (FC) below 2 gives Criterion met, anything at or above gives Criterion not met.

1) COc1cccc(CCNc2nc(N)c(C(=O)N=C(N)N)nc2Cl)c1.Cl = Criterion not met
2) CCOc1ccc(CCNc2nc(N)c(C(=O)N=C(N)N)nc2Cl)cc1.O=C(O)C(F)(F)F = Criterion not met
3) N=C(N)NC(=O)c1nc(Cl)c(N2CCCCCC2)nc1N [N,N-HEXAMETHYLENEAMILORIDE] = Criterion met
4) COc1ccc(CCNc2nc(N)c(C(=O)N=C(N)N)nc2Cl)cc1.Cl = Criterion met

Moving on to another compound below.
Problem: Criterion: fold change (FC) strictly below 2. Is it met by Cl.NC(N)=NC(=O)c1nc(Cl)c(NCCc2ccc3c(c2)OCO3)nc1N ?
Solution: Criterion not met

###

targetOrSystem: Adenosine receptor A2a (Homo sapiens)
method: Displacement of [3H]ZM-241,385 from human N-terminal FLAG-tagged adenosine A2A receptor expressed in HEK293 cell membrane by microbeta scintillation counting method
Listed next: entries and their corresponding pIC50.
Quick note: pIC50 values are minus log10 of concentrations in mol/L.

Solved cases (4 shown):
1) N=C(N)NC(=O)c1nc(Cl)c(N2CCCCCC2)nc1N [N,N-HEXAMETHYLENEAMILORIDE] = 5.29
2) Cl.NC(N)=NC(=O)c1nc(Cl)c(NCCc2ccc3c(c2)OCO3)nc1N = 5.25
3) CCOc1ccc(CCNc2nc(N)c(C(=O)N=C(N)N)nc2Cl)cc1.O=C(O)C(F)(F)F = 5.47
4) COc1ccc(CCNc2nc(N)c(C(=O)N=C(N)N)nc2Cl)cc1.Cl = 5.36

Next:
The compound COc1cccc(CCNc2nc(N)c(C(=O)N=C(N)N)nc2Cl)c1.Cl showed pIC50 equal to 5.09

###

targetOrSystem: Adenosine receptor A2a (Homo sapiens, UniProt P29274)
Sequence (P29274 whole entry): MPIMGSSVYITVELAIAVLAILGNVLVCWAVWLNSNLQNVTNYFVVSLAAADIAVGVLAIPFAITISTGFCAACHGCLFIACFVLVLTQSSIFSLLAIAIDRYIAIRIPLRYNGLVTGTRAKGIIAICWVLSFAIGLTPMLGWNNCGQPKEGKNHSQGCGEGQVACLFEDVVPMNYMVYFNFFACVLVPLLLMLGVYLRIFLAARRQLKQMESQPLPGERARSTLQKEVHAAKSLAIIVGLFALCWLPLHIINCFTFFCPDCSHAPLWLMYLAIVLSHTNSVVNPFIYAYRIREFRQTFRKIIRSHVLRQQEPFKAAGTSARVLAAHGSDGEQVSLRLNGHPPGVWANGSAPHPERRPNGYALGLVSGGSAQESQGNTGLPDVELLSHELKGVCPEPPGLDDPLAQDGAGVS
method: Displacement of [3H]ZM-241,385 from human N-terminal FLAG-tagged adenosine A2A receptor expressed in HEK293 cell membrane assessed as radioligand binding at 10 uM by microbeta scintillation counting method relative to control
Type: cell membranes
Assign class by Activity: not lower than 60% means Satisfied; lower than 60% means Not satisfied.

Examples with answers:
1) N#CCCNc1nc(N)c(C(=O)NC(=N)N)nc1Cl = Satisfied
2) CCOC(=O)CCNc1nc(N)c(C(=O)NC(=N)N)nc1Cl = Satisfied
3) N=C(N)NC(=O)c1nc(Cl)c(NCCS(=O)(=O)Cc2ccccc2)nc1N = Satisfied
4) COc1ccc(CCNc2nc(N)c(C(=O)N=C(N)N)nc2Cl)cc1.Cl = Not satisfied
5) Cc1ccc(CCNc2nc(N)c(C(=O)N=C(N)N)nc2Cl)cc1 = Not satisfied

Problem: Threshold query (Activity >= 60%) on C=CCOc1ccc(CCNc2nc(N)c(C(=O)N=C(N)N)nc2Cl)cc1
Solution: Not satisfied

Problem: Threshold query (Activity >= 60%) on N=C(N)NC(=O)c1nc(Cl)c(NCc2cccnc2)nc1N
Solution: Satisfied

Problem: Threshold query (Activity >= 60%) on N=C(N)NC(=O)c1nc(Cl)c(NCc2ccc(F)cc2)nc1N
Solution: Satisfied

Problem: Threshold query (Activity >= 60%) on CCOc1ccc(CCNc2nc(N)c(C(=O)N=C(N)N)nc2Cl)cc1.O=C(O)C(F)(F)F
Solution: Not satisfied

Problem: Threshold query (Activity >= 60%) on CCN(CC)CCNc1nc(N)c(C(=O)NC(=N)N)nc1Cl
Solution: Satisfied

Problem: Threshold query (Activity >= 60%) on N=C(N)NC(=O)c1nc(Cl)c(NCC(=O)O)nc1N
Solution: Satisfied
